tested.system: monomeric version of RAD51 (HumRadA22) (Pyrococcus furiosus, UniProt O74036)
method.description: Fluorescence polarisation (FP) competition assay: displacement of fluorescein-labelled BRC4 repeat
Format: binding, archaeal RadA mutant with human Rad51 surface residues
assay.context: stapled product (linker DVT or DVP as in Table 1); 100 nM HumRadA22, 10 nM BRC4-fluorescein; 20 mM CHES pH 9.5, 150 mM NaCl, 0.1% BSA, 0.1% Tween-20; KD calculated from IC50; single titration, three technical replicates per point; read-out: FP competition KD, nM, Stapled
Ends that are not written are not given here.

{"columns": ["polymer.sequence", "tested.system", "relational.operator", "Kd [nM]"],
 "data": [
  ["VNCSAFSGFSTASGKKLNVSTEALCKAVKLFSDIENIS (also: sidechain bridge or staple (positions not given here)) [GB1-SP13, GB1/C-His8 fusion peptide stapled with DVT; unstapled column is its linear mock control]", "monomeric version of RAD51 (HumRadA22) (Pyrococcus furiosus, UniProt O74036)", "=", 28],
  ["SCEALQKACKLFSDIENIS (also: sidechain bridge or staple (positions not given here)) [GB1-SP1, GB1/C-His8 fusion peptide stapled with DVT; unstapled column is its linear mock control]", "monomeric version of RAD51 (HumRadA22) (Pyrococcus furiosus, UniProt O74036)", ">", 500],
  ["SCFSTASGKKLNVSCEALQKAVKLFSDIENIS (also: sidechain bridge or staple (positions not given here)) [GB1-SP11, GB1/C-His8 fusion peptide stapled with DVT; unstapled column is its linear mock control]", "monomeric version of RAD51 (HumRadA22) (Pyrococcus furiosus, UniProt O74036)", "=", 36],
  ["VNSSAFSGFSTASGKKLNVSTEALCKAVKLFCDIENIS (also: sidechain bridge or staple (positions not given here)) [GB1-SP9, GB1/C-His8 fusion peptide stapled with DVT; unstapled column is its linear mock control]", "monomeric version of RAD51 (HumRadA22) (Pyrococcus furiosus, UniProt O74036)", "=", 51],
  ["ACGFSTASGKKLNVSCEALQKAVKLFSDIENIS (also: sidechain bridge or staple (positions not given here)) [GB1-SP10, GB1/C-His8 fusion peptide stapled with DVT; unstapled column is its linear mock control]", "monomeric version of RAD51 (HumRadA22) (Pyrococcus furiosus, UniProt O74036)", "=", 27],
  ["VNSSAFSGFSTASGKKLNVSCEALQKACKLFSDIECIS (also: sidechain bridge or staple (positions not given here)) [GB1-SP15, GB1/C-His8 fusion peptide stapled with DVT; unstapled column is its linear mock control]", "monomeric version of RAD51 (HumRadA22) (Pyrococcus furiosus, UniProt O74036)", "=", 13],
  ["SSACSGFSTASGKKLNVSTEACQKAVKLFSDIENIS (also: sidechain bridge or staple (positions not given here)) [GB1-SP12, GB1/C-His8 fusion peptide stapled with DVT; unstapled column is its linear mock control]", "monomeric version of RAD51 (HumRadA22) (Pyrococcus furiosus, UniProt O74036)", "=", 14]
]}
